A collection of compounds and their measured inhibition
# measurement_notes: PhoP-dependent GFP reporter repression – Salmonella Typhimurium, primary screen (AID 1863);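 note: 0% = low Mg2+ inducing control and 100% = high Mg2+ repressing control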
# recorded_conditions: S. Typhimurium PhoP-regulated promoter GFP reporter, 4 h; at 50 µM; hits give high values
Among all 300,000 compounds or so, about 480 (0.16%) were called active. Not all results are given here. Measured potencies and affinities stand elsewhere.
Response body: numeric value in %, unit text excluded.

As a guide, the following entries are already answered.
- compound: "Nc1nonc1-n1nnc(C(=O)N/N=C/c2c(Cl)cccc2Cl)c1CSC1=NCCS1"
  display_unit: "%"
  recorded_result: 6.32
- compound: "COCc1c(C(=O)N/N=C/c2ccc(C)o2)nnn1-c1nonc1N"
  display_unit: "%"
  recorded_result: 4.95
- compound: "Cn1c(NC(=O)C[n+]2cc(-c3ccc(Cl)cc3)n3c2CCC3)cc(=O)n(C)c1=O"
  display_unit: "%"
  recorded_result: 4.64

Q) Report inhibition for `Nc1nonc1C(=O)N/N=C/c1ccc(Br)o1`
A) -2.96

Q) Report inhibition for O=C(NC1CCCCC1)C1COc2ccccc2O1 (stereo not drawn)
A) 1.35

Q) Report inhibition for `O=C(C[n+]1cc(-c2ccc(Cl)cc2)n2c1CCC2)N1c2ccccc2Sc2ccccc21`
A) 17.8

Q) Report inhibition for `CCN(CCCCN1C(=O)c2ccccc2C1=O)c1ccc2c(c1)C(=O)N(C)C2=O`
A) -8.03

Q) Report inhibition for `Cn1c(NC(=O)C[n+]2cc(-c3ccc(F)cc3)n3c2CCC3)cc(=O)n(C)c1=O`
A) 4.11

Q) Report inhibition for O=C1CC(c2ccccc2)CC(O)=C1C=Nc1ccccc1 (stereo not drawn)
A) -10.4

Q) Report inhibition for `N#CCCn1nc(-c2ccccc2)c2ccccc2c1=O`
A) 0.37

Q) Report inhibition for `O=c1[nH]c2ccccc2c(O)c1-c1ccccc1`
A) 1.77

----------
A collection of molecules and their measured inhibition
# measurement_notes: PhoP-dependent GFP reporter repression – Salmonella Typhimurium, primary screen (AID 1863);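 note: 0% = low Mg2+ inducing control and 100% = high Mg2+ repressing control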
# recorded_conditions: S. Typhimurium PhoP-regulated promoter GFP reporter, 4 h; at 50 µM; hits give high values
Among all 300,000 compounds or so, about 480 (0.16%) were called active. The list is a sample of the results. Entries with a potency or affinity are not part of this list.
Response body: numeric value in %, unit text excluded.

As a guide, the following entries are already answered.
- molecule: "CCCC(=O)N1CC(=O)Nc2ccc(C)cc2C1c1ccccc1 (stereo not drawn)"
  recorded_result: -6.57
- molecule: "Cc1ccc(NC(=O)c2ncc(Cl)c(Cl)c2Cl)cc1C"
  recorded_result: 2
- molecule: "O=[N+]([O-])c1ccc(CSc2nc3ccccc3o2)cc1"
  recorded_result: 8.78

Q) Report inhibition for `OC1CCN(Cc2ccc(OCc3ccccc3)cc2)CC1`
A) 2.08

Q) Report inhibition for `Cc1cc(N/N=C/c2ccc(N(C)C)cc2)c2ccccc2n1`
A) 5.73

Q) Report inhibition for `CCn1c(SCC(=O)NCCc2ccccc2)nc2c([nH]c3ccccc32)c1=O`
A) -1.21

Q) Report inhibition for `Cc1c(CC(=O)N[C@@H](C)C(=O)O)c(=O)oc2c(C)c3occ(-c4ccccc4)c3cc12`
A) 9.42

Q) Report inhibition for `CCSc1nc(N2CCOCC2)c2ccccc2n1`
A) -4.32

----------
# measurement_notes: PhoP-dependent GFP reporter repression – Salmonella Typhimurium, primary screen (AID 1863);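 note: 0% = low Mg2+ inducing control and 100% = high Mg2+ repressing control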
# recorded_conditions: S. Typhimurium PhoP-regulated promoter GFP reporter, 4 h; at 50 µM; hits give high values
In all, about 300,000 compounds went through this assay and about 480 (0.16%) were called active. A selection follows. Entries with a potency or affinity are not part of this list.
value_type: inhibition (%)
Response body: numeric value in %, unit text excluded.

As a guide, the following entries are already answered.
- molecule: "O=C(NC(=S)N1CCN(C/C=C/c2ccccc2)CC1)c1cccnc1"
  inhibition, %: -1.23
- molecule: "O=C(Nc1cccc(Cl)c1)Nc1ccnc(-c2cccnc2)n1"
  inhibition, %: 5.1
- molecule: "Cc1ccccc1N1CCN(C2CCCN(C(=O)c3ccccn3)C2)CC1 (stereo unspecified)"
  inhibition, %: -6.14
- molecule: "Cc1cc(Nc2ccccc2)nc(NCc2ccccc2)n1"
  inhibition, %: 19.9
- molecule: "Cc1ccc(CN2CCC(c3nc4ccc(Cl)cc4[nH]3)CC2)cc1"
  inhibition, %: 22.6

Could you now consider this next molecule?
Q) Report inhibition for `N#CCCN(C(=O)CSc1nc2nc(-c3cccs3)cc(C(F)(F)F)c2c(=O)[nH]1)c1ccccc1`
A) -5.71

----------
# measurement_notes: PhoP-dependent GFP reporter repression – Salmonella Typhimurium, primary screen (AID 1863);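 note: 0% = low Mg2+ inducing control and 100% = high Mg2+ repressing control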
# recorded_conditions: S. Typhimurium PhoP-regulated promoter GFP reporter, 4 h; at 50 µM; hits give high values
Out of some 300,000 compounds screened, about 480 (0.16%) were called active. A selection follows. Measured potencies and affinities stand elsewhere.
A collection of compounds and their measured inhibition
Response body: numeric value in %, unit text excluded.

As a guide, the following entries are already answered.
- compound: "CCc1cc2c3c(c1)/C(=C1/SC(N)=NC1=O)C(=O)N3C(C)(C)C=C2C"
  inhibition, %: 2.08
- compound: "COc1ccc2nc(SCC(N)=O)cc(C)c2c1"
  inhibition, %: -2.01
- compound: "CCCc1[nH]nc2c1C(c1ccc(OC)c(Cn3nnc4ccccc43)c1)C(C#N)=C(N)O2 (stereo unspecified)"
  inhibition, %: 6.36
- compound: "COc1ccccc1CCNC(=O)C1(C)CC1(Cl)Cl (stereo unspecified)"
  inhibition, %: -0.33
- compound: "CC1(c2ccncc2)Nc2ccccc2-c2nc3ccccc3n21 (stereo unspecified)"
  inhibition, %: 4.56

Q) Report inhibition for O=C(NCC1CCCO1)c1cccnc1Nc1ccccc1F (stereo unspecified)
A) 8.77

Q) Report inhibition for COCC(C)NS(=O)(=O)c1ccccc1 (stereo unspecified)
A) -1.07

Q) Report inhibition for `Cc1onc(-c2ccccc2)c1C(=O)NC(=S)NNC(=O)c1ccc(O)cc1`
A) -7.99

----------
# measurement_notes: PhoP-dependent GFP reporter repression – Salmonella Typhimurium, primary screen (AID 1863);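 note: 0% = low Mg2+ inducing control and 100% = high Mg2+ repressing control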
# recorded_conditions: S. Typhimurium PhoP-regulated promoter GFP reporter, 4 h; at 50 µM; hits give high values
Among all 300,000 compounds or so, about 480 (0.16%) were called active. The list is a sample of the results. Potency and affinity values are given separately.
A collection of compounds and their measured inhibition
Response body: numeric value in %, unit text excluded.

As a guide, the following entries are already answered.
- compound: "CN1/C(=C\\C=O)C(C)(C)c2ccccc21"
  inhibition [%]: 4.13
- compound: "O=C(O)CCSc1nc2ccccc2n1Cc1ccccc1"
  inhibition [%]: -0.57
- compound: "CN(C)NC1CC(=O)N(c2ccccc2)C1=O (configuration not stated)"
  inhibition [%]: -0.29
- compound: "O=C(CSc1nnc(-c2ccccn2)o1)Nc1ccccc1"
  inhibition [%]: -5.62
- compound: "Cc1ccc(S(=O)(=O)N2CCN(Cc3ccccc3)CC2)cc1"
  inhibition [%]: -4.43

Q) Report inhibition for `Cc1cc(C(=O)N/N=C/c2ccc([N+](=O)[O-])o2)c(C)o1`
A) -2.92

Q) Report inhibition for `NC(=O)COC(=O)C12CC3CC(CC(O)(C3)C1)C2`
A) 17.4

Q) Report inhibition for `CCOC(=O)c1ccc(NC(=O)c2ccccc2N(C)S(=O)(=O)c2ccccc2)cc1`
A) 1.33

Q) Report inhibition for `CN1\C(=C/C=C/C=C/C=[N+](C)C)C(C)(C)c2ccccc21`
A) -18.9

Q) Report inhibition for `O=C(Cc1ccccc1)c1c[nH]c(C(=O)NCCCN2CCOCC2)c1`
A) -3.4

Q) Report inhibition for `O=C(N/N=C/c1ccc([N+](=O)[O-])o1)c1ccncc1`
A) 3.52

Q) Report inhibition for `O=C(N/N=C/C=C/c1ccccc1[N+](=O)[O-])c1cccs1`
A) -10.8

----------
# measurement_notes: PhoP-dependent GFP reporter repression – Salmonella Typhimurium, primary screen (AID 1863);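 note: 0% = low Mg2+ inducing control and 100% = high Mg2+ repressing control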
# recorded_conditions: S. Typhimurium PhoP-regulated promoter GFP reporter, 4 h; at 50 µM; hits give high values
Among all 300,000 compounds or so, about 480 (0.16%) were called active. A selection follows. Results with a measured potency or affinity are listed apart.
value_type: inhibition (%)
Response body: numeric value in %, unit text excluded.

- molecule: "Cc1nn(-c2ccccc2)c(N)c1Sc1ccc([N+](=O)[O-])cc1"
  inhibition (%): 0.62
- molecule: "CC(C(=O)N(C)C1CCS(=O)(=O)C1)N1C(=O)/C(=C/c2ccc(F)cc2)SC1=S (stereo not given)"
  inhibition (%): 3.59
- molecule: "CCOc1ccc(C(=O)Nc2ccc(C(=O)N3CCOCC3)cc2)c(OCC)c1"
  inhibition (%): 2.54
- molecule: "Nc1nc(-c2ccccn2)nc(N)c1Cc1ccc(Cl)cc1Cl"
  inhibition (%): 3.01
- molecule: "Nc1nonc1C(=O)NCCNC(=O)c1cccs1"
  inhibition (%): 17.7

Q) Report inhibition for CCOc1cc(C2/C(=C(/O)c3ccc(OC(C)C)cc3)C(=O)C(=O)N2CCCOC)ccc1O (stereo not given)
A) -4.64

Q) Report inhibition for `Cc1cccc(NS(=O)(=O)c2cccs2)c1`
A) 16.6

Q) Report inhibition for `CSc1cccc(NC(=S)N(CCCN2CCCC2)Cc2cccs2)c1`
A) 2.61

Q) Report inhibition for CC(C(=O)NC1C=CS(=O)(=O)C1)N1C(=O)/C(=C\c2ccccc2)SC1=S (stereo not given)
A) -3.24

Q) Report inhibition for CC(C(=O)NC1C=CS(=O)(=O)C1)N1C(=O)/C(=C/c2cccc(Cl)c2)SC1=S (stereo not given)
A) 27.8
